- protocolText: Cytotoxicity assay on L6-cells (Alamar Blue)
- setupConditions: rat, Cytotox L6, Cytotoxicity against rat myoblast cells (L6)
Non-standard residues stand in square brackets, D forms with d. Residues, ends and D or L forms follow the SMILES beside them. *: point of attachment. X10 = O=C(c1ccccc1)[C@H]1CCCC[C@H]1C(=O)*; NH((S)CH(Me)CH2NMe2) = C[C@@H](CN(C)C)N*; NH(1-CH2NMe2-cBu) = CN(C)CC1(N*)CCC1; Gly(octyl) = CCCCCCCC[C@H](N)C(=O)O; Oxazole4CO(2-Me) = Cc1nc(C(=O)*)co1; X3 = O=C(c1coc(-c2ccccc2)n1)*; Aib = CC(C)(N)C(=O)O; βAla = NCCC(=O)O
Recorded IC50 at 70 h by entry

{"compound": "CCCCCCCC[C@H](NC(=O)[C@@H]1CCCN1C(=O)c1coc(C)n1)C(=O)N[C@@H](CC(C)C)C(=O)NC(C)(C)C(=O)NC(C)(C)C(=O)N[C@@H](CC(C)C)C(=O)N[C@@H](CC(C)C)C(=O)NC(C)(C)C(=O)NC(C)(C)C(=O)NCCC(=O)NC1(CN(C)C)CCC1 [Compound 6330] ({Oxazole4CO(2-Me)}-P[Gly(octyl)]L[Aib][Aib]LL[Aib][Aib][βAla]-{NH(1-CH2NMe2-cBu)})", "IC50 at 70 h / nM": 1200}
{"compound": "CCCCCCCC[C@H](NC(=O)[C@@H]1CCCN1C(=O)c1coc(-c2ccccc2)n1)C(=O)N[C@@H](CC(C)C)C(=O)NC(C)(C)C(=O)N[C@@H](CC(C)C)C(=O)N[C@@H](CC(C)C)C(=O)NC(C)(C)C(=O)NC(C)(C)C(=O)NCCC(=O)N[C@@H](C)CN(C)C [Compound 5906] (X3-P[Gly(octyl)]L[Aib]LL[Aib][Aib][βAla]-{NH((S)CH(Me)CH2NMe2)})", "IC50 at 70 h / nM": 445}
{"compound": "CCCCCCCC[C@H](NC(=O)[C@@H]1CCCC[C@@H]1C(=O)c1ccccc1)C(=O)N[C@@H](CC(C)C)C(=O)NC(C)(C)C(=O)N[C@@H](CC(C)C)C(=O)N[C@@H](CC(C)C)C(=O)NC(C)(C)C(=O)NC(C)(C)C(=O)NCCC(=O)N[C@@H](C)CN(C)C [Compound 5945] (X10-[Gly(octyl)]L[Aib]LL[Aib][Aib][βAla]-{NH((S)CH(Me)CH2NMe2)})", "IC50 at 70 h / nM": 144}

---

Recorded IC50 at 70 h by entry
- protocolText: Cytotoxicity assay on L6-cells (Alamar Blue)
- setupConditions: rat, Cytotox L6, Cytotoxicity against rat myoblast cells (L6)
Non-standard residues stand in square brackets, D forms with d. Residues, ends and D or L forms follow the SMILES beside them. *: point of attachment. Hexenoyl(2E,4S-Me) = CC[C@H](C)/C=C/C(=O)*; Leu(3R-OH) = CC(C)[C@@H](O)[C@H](N)C(=O)O; NH((S)CH(Me)CH2NMe2) = C[C@@H](CN(C)C)N*; Pro(4S-Me) = C[C@@H]1CN[C@H](C(=O)O)C1; Nva(5-OH) = N[C@@H](CCCO)C(=O)O; Aib = CC(C)(N)C(=O)O; βAla = NCCC(=O)O

{"molecule": "CCCCCCCC[C@H](NC(=O)[C@@H]1CCCN1C(=O)/C=C/[C@@H](C)CC)C(=O)N[C@H](C(=O)NCCC(=O)N[C@@H](C)CN(C)C)[C@H](O)C(C)C", "IC50 at 70 h, µM": 8.61}
{"molecule": "CC[C@H](C)/C=C/C(=O)N1C[C@@H](C)C[C@H]1C(=O)N[C@@H](CCCO)C(=O)N[C@H](C(=O)NC(C)(C)C(=O)N[C@@H](CC(C)C)C(=O)N[C@@H](CC(C)C)C(=O)NC(C)(C)C(=O)NC(C)(C)C(=O)NCCC(=O)N[C@@H](C)CN(C)C)[C@H](O)C(C)C [Compound 5496] ({Hexenoyl(2E,4S-Me)}-[Pro(4S-Me)][Nva(5-OH)][Leu(3R-OH)][Aib]LL[Aib][Aib][βAla]-{NH((S)CH(Me)CH2NMe2)})", "IC50 at 70 h, µM": 5.22}

---

- System: rat myoblast (L6-cells)
- protocolText: Cytotoxicity assay on L6-cells (Alamar Blue)
- setupConditions: Rattus norvegicus, Myoblast, 70 h
pIC50: −log10 of the molar value.

{"chemicalString": "COc1cc([C@@H]2c3cc4c(cc3[C@H](O)[C@H]3COC(=O)[C@H]23)OCO4)cc(OC)c1OC", "pIC50": 7.30}

---

- protocolText: Cytotoxicity assay on L6-cells (Alamar Blue)
- setupConditions: rat, Cytotox L6, Cytotoxicity against rat myoblast cells (L6)
Starred links: 1 amine or outer side, 2 acyl side, 3 side chain; linkers in the order of their positions; H or OH if unused. Non-standard residues stand in square brackets, D forms with d. Residues, ends and D or L forms follow the SMILES beside them. *: point of attachment. ACHC(1S,2R) = O=C([C@H]1CCCC[C@H]1N[*:1])[*:2]; NH((S)CH(Me)CH2NMe2) = C[C@@H](CN(C)C)N*; NH(1-CH2NMe2-cBu) = CN(C)CC1(N*)CCC1; Gly(octyl) = CCCCCCCC[C@H](N)C(=O)O; Oxazole4CO(2-Me) = Cc1nc(C(=O)*)co1; X22 = CC1CC(C)CN(CCN*)C1; Hexanoyl = CCCCCC(=O)*; Aib = CC(C)(N)C(=O)O; Bz = O=C(c1ccccc1)*; Ms = CS(=O)(=O)*; βAla = NCCC(=O)O

{"compound": "CCCCCCCC[C@H](NC(=O)[C@H]1CCCC[C@H]1NC(=O)c1ccccc1)C(=O)N[C@@H](CC(C)C)C(=O)NC(C)(C)C(=O)N[C@@H](CC(C)C)C(=O)N[C@@H](CC(C)C)C(=O)NC(C)(C)C(=O)NC(C)(C)C(=O)NCCC(=O)N[C@@H](C)CN(C)C [Compound 5982] (Bz-[ACHC(1S,2R)][Gly(octyl)]L[Aib]LL[Aib][Aib][βAla]-{NH((S)CH(Me)CH2NMe2)})", "valueUnits": "nM", "IC50 at 70 h": 573}
{"compound": "CCCCCCCC[C@H](NC(=O)[C@@H]1CCCN1C(=O)CCCCC)C(=O)N[C@@H](CC(C)C)C(=O)NC(C)(C)C(=O)N[C@@H](CC(C)C)C(=O)N[C@@H](CC(C)C)C(=O)NC(C)(C)C(=O)NC(C)(C)C(=O)NCCC(=O)NCCN1CC(C)CC(C)C1 (stereo partly shown) [Compound 5885] (Hexanoyl-P[Gly(octyl)]L[Aib]LL[Aib][Aib][βAla]-X22)", "valueUnits": "nM", "IC50 at 70 h": 45.6}
{"compound": "CCCCCCCC[C@H](NC(=O)[C@@H]1CCCN1C(=O)c1coc(C)n1)C(=O)N[C@@H](CC(C)C)C(=O)NC(C)(C)C(=O)N[C@@H](CC(C)C)C(=O)N[C@@H](CC(C)C)C(=O)NC(C)(C)C(=O)N[C@@H](CC(C)C)C(=O)NCCC(=O)NC1(CN(C)C)CCC1 [Compound 6329] ({Oxazole4CO(2-Me)}-P[Gly(octyl)]L[Aib]LL[Aib]L[βAla]-{NH(1-CH2NMe2-cBu)})", "valueUnits": "nM", "IC50 at 70 h": 398}
{"compound": "CCCCCCCC[C@H](NC(=O)[C@@H]1CCCN1S(C)(=O)=O)C(=O)N[C@@H](CC(C)C)C(=O)NC(C)(C)C(=O)N[C@@H](CC(C)C)C(=O)N[C@@H](CC(C)C)C(=O)NC(C)(C)C(=O)NC(C)(C)C(=O)NCCC(=O)N[C@@H](C)CN(C)C [Compound 5652] (Ms-P[Gly(octyl)]L[Aib]LL[Aib][Aib][βAla]-{NH((S)CH(Me)CH2NMe2)})", "valueUnits": "nM", "IC50 at 70 h": 1410}
